The compounds below have reported IC50 for AChE from Electrophorus electricus (Electrophorus electricus, UniProt O42275).
Value expressed in µM; do not type the unit.

# COMPOUND, TARGET, IC50 [µM]
rows = [
    ("Oc1ccccc1/C=N/Nc1nccnc1Cl [CHP4]", "AChE from Electrophorus electricus (Electrophorus electricus, UniProt O42275)", 3.76),
]

What value of IC50 on AChE from Electrophorus electricus (Electrophorus electricus, UniProt O42275) does Clc1ccc(/C=N/Nc2nccnc2Cl)cc1 [CHP5] have?
4.2

Taken from paper PMC8864858.
